Assign protein stability index to each entry below.
B1: SLC2A12 (parent)
chain: TRIMIGLTLVFFVQITGQPNILFY

variants of: B1; assay: protein stability index of a GFP-peptide fusion (GPS, HEK-293T) (PSI 1-6); higher = more stable; conditions: c terminus: a fixed tail appended;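 note: lentivirally expressed fusions sorted by FACS into six bins by GFP to DsRed ratio, PSI derived from sequencing read proportions per bin multiplied by bin number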
One number for each entry.

Record excerpt, results attached:
{"biopolymer_sequence": "TIIMIGLTLVFFVQITGQPNILFY [R2I]", "observed_value": 2.93}
{"biopolymer_sequence": "TRIMDGLTLVFFVQITGQPNILFY [I5D]", "observed_value": 3.91}
{"biopolymer_sequence": "TRIMIGLTNVFFVQITGQPNILFY [L9N]", "observed_value": 2.69}
{"biopolymer_sequence": "TRIMIGLTLVFFVQITGQPNIEFY [L22E]", "observed_value": 3.11}
{"biopolymer_sequence": "TRIMIGLTLVSFVQITGQPNILFY [F11S]", "observed_value": 3.83}

Working through the 5 variants below one at a time, give protein stability index for each.
1. TRIMIGLTLVFFVQITGQPNALFY [I21A]
2. TRIMIGLTLVFFVQITGQPNILKY [F23K]
3. TRIMIGLTDVFFVQITGQPNILFY [L9D]
4. TRIMIGLTLVFFVQITGQPNVLFY [I21V]
5. TRIMIGLPLVFFVQITGQPNILFY [T8P]

**A:**
1: 2.81; 2: 3.29; 3: 3.04; 4: 2.5; 5: 4.51

Working through the 6 variants below one at a time, give protein stability index for each.
1. TKIMIGLTLVFFVQITGQPNILFY [R2K]
2. TLIMIGLTLVFFVQITGQPNILFY [R2L]
3. TRIMIHLTLVFFVQITGQPNILFY [G6H]
4. TRIMIGLTLVFFVQITGQPNILDY [F23D]
5. TRIFIGLTLVFFVQITGQPNILFY [M4F]
6. TRIMIGLTLVFFVQITGAPNILFY [Q18A]

**A:**
[2.82, 2.57, 2.34, 2.29, 2.29, 3.12]
